# Tested on: SNB-75 CNS
# ASSAY: NCI-60 one-dose screen, 48 h (100 = growth as untreated, 0 = no growth, -100 = all killed)
# TEST SETTINGS: 10 µM
This is part of a sample that, as a whole, favours compounds with a hit. Of some 83,000 tested, about 20% had one in any assay.
QUANTITY KIND: growth (%)
Provide the reading as a plain figure in %.

CC1(C)CNC(=O)N1 :: 94.4
CCCCCCCCCCCC(=O)NCCCN(C)C :: 75.2
COc1ccc(-c2cc(/C=C3\C(=O)Nc4cc(Cl)ccc43)[nH]n2)cc1 :: -27.5
O=C(Nc1cccc(C(F)(F)F)c1)C(Cl)Cl :: 91.3
CC(=O)c1ccc(NCn2nc(-c3ccc(Cl)cc3)oc2=S)cc1 :: 107
COc1ccc(-c2nnc(SCC(=O)c3ccccc3)o2)cc1 :: 92.5

Prompt: // query growth value for entry `CC(C)(C)CC(C)(C)c1ccc(O)c(Cc2ccc(Cl)cc2Cl)c1`
Completion: -77.7

Prompt: // query growth value for entry `CCOC(=O)c1cc2c(n1Cc1cc(OC)cc(OC)c1)-c1oncc1CC2`
Completion: -0.349

Prompt: // query growth value for entry `COc1cc(OC)cc(N2CCN(C(=O)Nc3nc4cc(F)ccc4nc3OC)CC2)c1`
Completion: 27.9

Prompt: // query growth value for entry `CC(=O)Nc1nc(C)c(C(=O)NNC=O)s1`
Completion: 94.8

Prompt: // query growth value for entry `COc1cc(C2=Nc3c/c(=C\c4c(O)[nH]c5ccc(Cl)cc45)ccc3=N2)cc(OC)c1OC`
Completion: 50.1

Prompt: // query growth value for entry `O=C(COCc1c(-c2ccccc2)no[n+]1[O-])Nc1nc(-c2ccc(Cl)cc2)cs1`
Completion: 98.6

----------
# System: NCI-H23 lung
# ASSAY: NCI-60 one-dose screen, 48 h
# TEST SETTINGS: 10 µM
# Experimental: Growth inhibition of the NCI-H23 human Non-Small Cell Lung tumor cell line is measured as a screen for anti-cancer activity. Cells are grown in 96 well plates and exposed to the test compound for 48 hours. Compounds are tested at a single concentration, which is 10^-5 M for most compounds. The reported endpoint is percent growth (GI% or GIPRCNT), where numbers from 0 - 100% represent growth inhibition, and numbers from -100% - 0 represent cell death. […]
This is part of a sample that, as a whole, favours compounds with a hit. Of some 83,000 tested, about 20% had one in any assay. The source made the active and inactive calls. The calls were made as follows: active = growth percent below 10; inactive = the rest.
Result category, one only: active, inactive

O=S(=O)(NC1c2ccccc2Oc2ccccc21)c1ccccc1 :: inactive
Nc1cc2c(cc1Cl)-c1ccc(Cl)cc1C2=O :: inactive

Prompt: Please state the recorded outcome for this compound: `O=C(NCCCl)c1cc(Cl)cc(Cl)c1`
Completion: inactive

Prompt: Please state the recorded outcome for this compound: `Cc1ncc([N+](=O)[O-])n1CCOc1ccc(C(=O)/C=C/c2ccc(C(F)(F)F)cc2)cc1`
Completion: inactive

Prompt: Please state the recorded outcome for this compound: `FC(F)(F)c1ccc(-c2cnc(Cl)nc2NCc2cc(C(F)(F)F)cc(C(F)(F)F)c2)cc1`
Completion: active

Prompt: Please state the recorded outcome for this compound: `CCSc1nc2c([nH]1)c(=O)n(C)c(=S)n2C`
Completion: inactive

Prompt: Please state the recorded outcome for this compound: `C=CCOc1ccc2c(c1)CC=C1[C@@H]2CC[C@]2(C)C(=O)/C(=N/O)C[C@@H]12`
Completion: inactive

Where these numbers come from: PubChem BioAssay (NCI)
